The origin of these recorded values is patent US20240417469A1.

Molecular target: T1, human CD3 protein (human, UniProt P07766 23-126; P04234 22-105)
T1 construct: ELISA coating protein; also called Human CD3D & CD3E Heterodimer Protein
T1 sequence (P07766 23-126 limits assumed, chain 1 of 2): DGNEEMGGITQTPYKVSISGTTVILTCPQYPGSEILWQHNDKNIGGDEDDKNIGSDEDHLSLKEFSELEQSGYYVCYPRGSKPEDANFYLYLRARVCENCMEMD
T1 sequence (P04234 22-105 limits assumed, chain 2 of 2): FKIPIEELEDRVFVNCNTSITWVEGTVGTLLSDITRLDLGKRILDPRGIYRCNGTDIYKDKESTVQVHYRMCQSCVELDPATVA
Test: ELISA, plate-coated CD3;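 also: binding to plate-immobilized human CD3 protein, bound antibody detected with peroxidase-labelled anti-human IgG and TMB, read as absorbance at 450 nm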
Below, each entry is listed alongside its reported EC50.

These recorded examples may help you get a feel for the data.
binder="Hu192A7B9-4 (antibody, V domains shown, humanized mAb) VH: EVQLQESGPGLVKPSETLSLTCTVSGGSISSYNVHWVRQPPGKGLEWMGRMRYNGDTSYNSALKSRLTISRDTSKNQFSLKLSSVTAADTAVYYCTRGPRGGYYSALFDYWGQGTMVTVSS VL: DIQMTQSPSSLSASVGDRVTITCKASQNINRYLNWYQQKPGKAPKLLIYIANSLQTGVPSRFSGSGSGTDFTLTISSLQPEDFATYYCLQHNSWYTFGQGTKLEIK" parameter=EC50 recorded_result="22.8 ng/mL"
binder="Hu153A6B1-10 (antibody, V domains shown, humanized mAb) VH: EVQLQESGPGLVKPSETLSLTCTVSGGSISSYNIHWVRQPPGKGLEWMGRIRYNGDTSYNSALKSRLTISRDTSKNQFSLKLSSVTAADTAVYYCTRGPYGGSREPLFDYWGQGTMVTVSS VL: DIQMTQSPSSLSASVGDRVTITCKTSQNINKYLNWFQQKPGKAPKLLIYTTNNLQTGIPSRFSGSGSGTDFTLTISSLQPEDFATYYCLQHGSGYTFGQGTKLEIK" parameter=EC50 recorded_result="3.44 ng/mL"
binder="Hu155A9B1-16 (antibody, V domains shown, humanized mAb; also called 155z16) VH: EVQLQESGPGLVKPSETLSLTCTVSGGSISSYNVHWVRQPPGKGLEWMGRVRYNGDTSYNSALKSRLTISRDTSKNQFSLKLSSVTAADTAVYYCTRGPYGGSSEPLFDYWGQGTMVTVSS VL: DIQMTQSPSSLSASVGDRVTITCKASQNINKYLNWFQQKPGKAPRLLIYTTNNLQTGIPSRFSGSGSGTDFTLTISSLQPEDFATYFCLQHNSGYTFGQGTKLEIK" parameter=EC50 recorded_result="7.28 ng/mL"

// query Consider the binder Hu155A9B1-18 (antibody, V domains shown, humanized mAb) VH: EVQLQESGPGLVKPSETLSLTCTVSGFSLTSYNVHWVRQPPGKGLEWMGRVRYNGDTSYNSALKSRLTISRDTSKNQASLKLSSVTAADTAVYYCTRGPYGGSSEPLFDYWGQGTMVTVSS VL: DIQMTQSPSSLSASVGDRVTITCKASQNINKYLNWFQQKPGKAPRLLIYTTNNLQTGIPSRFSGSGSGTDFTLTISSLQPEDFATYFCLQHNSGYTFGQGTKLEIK and give its recorded EC50.
// result 1.95 ng/mL

// query Consider the binder Hu192A7B9-21 (antibody, V domains shown, humanized mAb) VH: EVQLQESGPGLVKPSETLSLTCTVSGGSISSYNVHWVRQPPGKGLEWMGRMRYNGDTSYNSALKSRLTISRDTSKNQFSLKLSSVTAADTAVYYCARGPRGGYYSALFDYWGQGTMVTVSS VL: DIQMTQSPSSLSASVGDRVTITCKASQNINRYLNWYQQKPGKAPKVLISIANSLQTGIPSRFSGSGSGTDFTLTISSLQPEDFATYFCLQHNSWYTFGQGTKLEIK and give its recorded EC50.
// result 5.46 ng/mL
